Below, each of the compounds is paired with its reported normalized growth value.
# procedure_summary: chemical genetic growth profiling, strain panel (AID 1159580);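 also: tested at 20 µM; growth read once vehicle control cultures reached saturation at 30 °C; 1 = growth at the plate median or of vehicle wells; lower values mean less growth of the strain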
# protocol_conditions: S. cerevisiae deletion strains, growth OD, locus YIL125W, strain kgd1, active compounds read low
Out of some 5,500 compounds screened, about 2,000 (36%) were called active. About 18% were inconclusive and are not listed. The list shows a part of the results.
Answer with a bare number; do not write a unit.

[[record]]
compound = "COC1=CC23CCCN2CCc2cc4c(cc2C3C1O)OCO4 (stereo not given)"
experimental_result = 1.01

[[record]]
compound = "O=C(O)CCC(=O)OC[C@@H](NC(=O)C(Cl)Cl)[C@H](O)c1ccc([N+](=O)[O-])cc1"
experimental_result = 0.983

[[record]]
compound = "O=C1c2cccc(O)c2C(=O)c2c(O)cccc21"
experimental_result = 0.872


Form field: reported normalized growth of COC(=O)C(O)[C@H]1C(C)(C)[C@@H](OC(C)=O)[C@@H]2CC3=C4CC(=O)O[C@@H](c5ccoc5)[C@]4(C)CCC3[C@@]1(C)C2=O (stereo not given in full) 1.01

Form field: reported normalized growth of O=C(O)c1cc(O)c2c(c1)C(=O)c1cc(O)cc(O)c1C2=O 0.915

Form field: reported normalized growth of CC(=O)OC[C@@]1(O)C[C@@]23CCC4c5ccoc5CC[C@]4(C)C2CC[C@@H]1C3 (stereo not given in full) 0.965

Form field: reported normalized growth of O=C(O)c1cccnc1C(=O)O 0.971

Form field: reported normalized growth of O=C(Nc1ccc([N+](=O)[O-])cc1Cl)c1cc(Cl)ccc1O 1

Form field: reported normalized growth of O=C(/C=C/c1ccccc1)c1ccc(O[C@@H]2O[C@H](CO)[C@@H](O)[C@H](O)[C@H]2O)cc1O 0.895

Form field: reported normalized growth of CN1C(=O)CC[C@H]1c1cccnc1 1.02

----------
# procedure_summary: chemical genetic growth profiling, strain panel (AID 1159580);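 also: tested at 20 µM; growth read once vehicle control cultures reached saturation at 30 °C; 1 = growth at the plate median or of vehicle wells; lower values mean less growth of the strain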
# protocol_conditions: S. cerevisiae deletion strains, growth OD, locus YPR167C, strain met16
The campaign covered roughly 5,500 compounds. About 2,000 (36%) were called active. Not shown: some 18% with an inconclusive outcome. Cut-off read from the data, not from the text of the source: active = normalized growth mostly below about 0.91 (no sharp cut-off); inconclusive = no clear call, values can overlap the other calls; inactive = mostly above about 0.92. The list shows a part of the results.
Respond only with the outcome that fits, drawn from 1.0 = active, 0.0 = inactive

Look over these answered cases.
[[record]]
compound = "CC(=O)OC[C@@]1(O)C[C@@]23CCC4c5ccoc5CC[C@]4(C)C2CC[C@@H]1C3 (stereo not given in full)"
group_label = 0.0

[[record]]
compound = "Cc1ccc(O)c(C(CCN(C(C)C)C(C)C)c2ccccc2)c1 (stereo not given)"
group_label = 0.0

[[record]]
compound = "Cn1c(=O)c2c(ncn2C)n(C)c1=O"
group_label = 0.0


Each compound tested received a call. Report the one for CNC(=O)Oc1cccc2c1OC(C)(C)C2 . 0.0

Each compound tested received a call. Report the one for O=C(Nc1ccc([N+](=O)[O-])cc1Cl)c1cc(Cl)ccc1O . 0.0

Each compound tested received a call. Report the one for CC(C)[C@@H]1CC[C@@H](C)C[C@H]1OC(=O)c1ccccc1 . 0.0

Each compound tested received a call. Report the one for COc1cc(O)ccc1C(C)=O . 0.0

Each compound tested received a call. Report the one for CN(C)CCC[C@@]1(c2ccc(F)cc2)OCc2cc(C#N)ccc21 . 0.0

Each compound tested received a call. Report the one for CCCCN(CC)c1c([N+](=O)[O-])cc(C(F)(F)F)cc1[N+](=O)[O-] . 0.0

Each compound tested received a call. Report the one for COc1ccc(-c2c(OC)c3c(OC)c4c(cc3oc2=O)OC(C)(C)C=C4)cc1 . 0.0

Each compound tested received a call. Report the one for O=c1c(O)c(-c2ccccc2)oc2ccccc12 . 0.0

Each compound tested received a call. Report the one for CCCC(=O)Nc1ccc(OCC(O)CNC(C)C)c(C(C)=O)c1 (stereo not given) . 0.0

Each compound tested received a call. Report the one for COc1ccc(-c2c(O)c3c(OC)c4c(cc3oc2=O)OC(C)(C)C=C4)cc1 . 0.0

Each compound tested received a call. Report the one for ClC1C(Cl)C(Cl)C(Cl)C(Cl)C1Cl (stereo not given) . 1.0

Each compound tested received a call. Report the one for CC(C)Cn1c(=O)n(C)c(=O)c2[nH]cnc21 . 0.0
